System: biotinyl-Leu-oxazolone
experiment.notes: self-aminoacylation, catalytic enhancement (BLO) (fold over background); higher = more active; k-Seq, kA / k0A0; sequences stand for … in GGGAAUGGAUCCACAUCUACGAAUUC…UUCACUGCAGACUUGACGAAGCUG
Fewer inactive variants are shown than the library holds.
Label rule, in plain words: self-aminoacylation of 4 and up is fulfilled, under 4 is not fulfilled.

Field: example entries. Status: answers known.
# item.sequence, assigned.category
records = [
    ("AUGACCCUGCUCAUCGAGUGA [Fam2.1 aminoacylation ribozyme variant]", "not fulfilled"),
    ("UUUACCCUGGUCUUCGAGUGA [Fam2.1 aminoacylation ribozyme variant]", "not fulfilled"),
    ("AGCCACCUAGGUCAUCGGGUG [Fam2.2 aminoacylation ribozyme variant]", "fulfilled"),
]

(Q) Item AUUACCCUGGUCGCCGAGUGA [Fam2.1 aminoacylation ribozyme variant] with self-aminoacylation of 4 or above?
(A) fulfilled

(Q) Item CCGCACUUCACGCAAUCGGUC [Fam1B.1 aminoacylation ribozyme variant] with self-aminoacylation of 4 or above?
(A) not fulfilled
